- METHOD_SUMMARY: Cytotoxicity
- Assay type: cell-based
- EXPERIMENTAL_PARAMETERS: African green monkey, Vero cells (kidney)
RECORDED_ENDPOINT: CC50

Given the compound COCCCOc1cc2c(nc1OC)-c1cc(=O)c(C(=O)O)cn1[C@H](C(C)C)C2 , write its reported CC50. > 30 µM

====

- System: HBV PRE
- METHOD_SUMMARY: HBV PRE cis-element reporter plasmids (HBsAg or Gluc) transfected in Huh-7 cells
- EXPERIMENTAL_PARAMETERS: Hepatitis B virus, 120 h, read-out: EC50, H133_Gluc (Gluc activity)
RECORDED_ENDPOINT: pEC50
Note on units: pEC50 is unitless, being -log10 of a concentration expressed in mol/L.

Give the value of pEC50 reported for the following: COCCCOc1cc2c(nc1OC)-c1cc(=O)c(C(=O)O)cn1[C@H](C(C)C)C2 8.00

====

- Test system: HBsAg
- METHOD_SUMMARY: HBsAg inhibition in adenovirus-HBsAg-transduced HepG2-NTCP WT and KO clones
- Format: cell-based, hepatitis B virus
- EXPERIMENTAL_PARAMETERS: P7_KO (T2-8), HBsAg; read-out: Adeno infection EC50
RECORDED_ENDPOINT: EC50 (nM)
# value in nM; strip the unit string

For the compound COCCCOc1cc2c(cc1OC)-c1cc(=O)c(C(=O)O)cn1[C@H](C(C)C)C2 [RG7834, reference compound] , report EC50. 23.7

====

- TEST_SYSTEM: recombinant human PAPD5 (Homo sapiens, UniProt Q8NDF8)
- Construct: PAPD5 (amino acids 186 to 518; XM_011523275); 10xHis (N); Flag (N); TEV cleavage site (N)
- Sequence (Q8NDF8 106-438 limits assumed): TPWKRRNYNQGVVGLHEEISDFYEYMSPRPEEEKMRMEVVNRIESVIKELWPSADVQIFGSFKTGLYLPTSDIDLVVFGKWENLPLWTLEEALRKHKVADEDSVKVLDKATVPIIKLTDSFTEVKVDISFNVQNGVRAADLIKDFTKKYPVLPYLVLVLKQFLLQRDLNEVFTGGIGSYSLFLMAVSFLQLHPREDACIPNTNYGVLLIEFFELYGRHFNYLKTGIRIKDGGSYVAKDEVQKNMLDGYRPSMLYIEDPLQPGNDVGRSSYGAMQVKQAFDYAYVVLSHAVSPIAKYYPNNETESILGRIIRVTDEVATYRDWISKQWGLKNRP
- METHOD_SUMMARY: PAPD5 ATP depletion assay
- EXPERIMENTAL_PARAMETERS: truncated recombinant human PAPD5, ATP depletion
RECORDED_ENDPOINT: IC50 (µM)
Please state the figure in µM; there is no need to write the unit.

Kindly indicate its recorded IC50. Item: COCCCOc1cc2c(nc1OC)-c1cc(=O)c(C(=O)O)cn1[C@@H](C(C)C)C2 [ARB-169451] 27

Give the reported IC50 for this molecule. COCCCOc1cc2c(nc1OC)-c1cc(=O)c(C(=O)O)cn1[C@H](C(C)C)C2 [AB-452] 0.094

Please give the documented IC50 of COCCCOc1cc2c(cc1OC)-c1cc(=O)c(C(=O)O)cn1[C@H](C(C)C)C2 [RG7834, reference compound] 0.167

====

- METHOD_SUMMARY: Cytotoxicity
- Assay type: cell-based
- EXPERIMENTAL_PARAMETERS: HEp2, human epithelial cells
RECORDED_ENDPOINT: CC50

Using the record for COCCCOc1cc2c(nc1OC)-c1cc(=O)c(C(=O)O)cn1[C@H](C(C)C)C2 , state its measured CC50. > 30 µM

====

- METHOD_SUMMARY: Cytotoxicity
- Assay type: cell-based
- EXPERIMENTAL_PARAMETERS: human, MRC5 cells (lung fibroblasts)
RECORDED_ENDPOINT: CC50

Assign CC50 to the following record: COCCCOc1cc2c(nc1OC)-c1cc(=O)c(C(=O)O)cn1[C@H](C(C)C)C2 [AB-452] > 30 µM

Cited source for all entries: paper PMC8387043
